We begin with a simple list: items and their reported pIC50.
biological target: EHMT2 (Euchromatic histone-lysine N-methyltransferase 2) (Homo sapiens (Human), UniProt Q96KQ7); experiment: EHMT2 enzyme inhibition, LANCE TR-FRET; type: biochemical; settings: histone H3 peptide, 1 hour at room temperature
Sequence (Q96KQ7 whole entry): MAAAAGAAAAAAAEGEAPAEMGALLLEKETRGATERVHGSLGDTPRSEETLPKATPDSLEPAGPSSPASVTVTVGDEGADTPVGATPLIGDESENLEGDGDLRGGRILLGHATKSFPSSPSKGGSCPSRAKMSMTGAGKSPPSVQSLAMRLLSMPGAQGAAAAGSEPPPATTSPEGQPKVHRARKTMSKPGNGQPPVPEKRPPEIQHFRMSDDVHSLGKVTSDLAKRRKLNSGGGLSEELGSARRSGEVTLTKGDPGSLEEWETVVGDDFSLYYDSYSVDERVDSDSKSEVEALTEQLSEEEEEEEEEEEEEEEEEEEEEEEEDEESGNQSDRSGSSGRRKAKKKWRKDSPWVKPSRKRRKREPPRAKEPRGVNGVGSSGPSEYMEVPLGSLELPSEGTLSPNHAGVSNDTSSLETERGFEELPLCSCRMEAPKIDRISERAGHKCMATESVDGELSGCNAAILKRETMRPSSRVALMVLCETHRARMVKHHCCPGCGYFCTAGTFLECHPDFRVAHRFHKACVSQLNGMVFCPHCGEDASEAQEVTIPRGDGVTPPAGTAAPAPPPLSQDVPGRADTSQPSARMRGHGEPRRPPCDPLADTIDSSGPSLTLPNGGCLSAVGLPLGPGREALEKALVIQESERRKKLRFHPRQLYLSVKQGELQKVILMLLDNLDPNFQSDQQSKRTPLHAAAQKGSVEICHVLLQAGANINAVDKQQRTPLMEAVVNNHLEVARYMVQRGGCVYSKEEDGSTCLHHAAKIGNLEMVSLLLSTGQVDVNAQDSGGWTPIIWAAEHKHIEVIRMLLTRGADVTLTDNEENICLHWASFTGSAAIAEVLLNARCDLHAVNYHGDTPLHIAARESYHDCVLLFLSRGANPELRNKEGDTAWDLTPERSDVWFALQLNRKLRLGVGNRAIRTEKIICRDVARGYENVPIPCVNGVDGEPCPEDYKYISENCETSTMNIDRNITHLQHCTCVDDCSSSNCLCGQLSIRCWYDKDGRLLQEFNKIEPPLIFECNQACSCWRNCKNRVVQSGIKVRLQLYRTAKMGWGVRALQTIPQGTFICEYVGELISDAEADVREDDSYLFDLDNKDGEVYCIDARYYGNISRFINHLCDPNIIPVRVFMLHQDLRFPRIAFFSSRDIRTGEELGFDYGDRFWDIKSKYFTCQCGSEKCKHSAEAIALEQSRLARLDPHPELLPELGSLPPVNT
pIC50: −log10 of the molar value.

Below, 5 molecules whose answers are already recorded.
1) COc1cc2c(NC3CCN(C(C)C)CC3)nc(N3CCCC3)nc2cc1C#CCCN(C)C > 7.00
2) COc1cc2c(NC3CCN(C(C)C)CC3)nc(N3CCCCC3)nc2cc1C#CCCN1CCCCC1 > 7.00
3) COc1cc2c(NCCN3CCCC3)nc(N3CCCCC3)nc2cc1C#CCCN(C)C 5.00 to 6.00
4) COc1cc2c(NCCN(C)C)nc(N3CC[C@@H](F)C3)nc2cc1C#CCCN1CCCC1 6.00 to 7.00
5) CCN1CCC(Nc2nc(N3CCCC3)nc3cc(C#CCCN4CCCC4)c(OC)cc23)CC1 > 7.00

Reported pIC50 ( COc1cc2c(NC3CCN(C4CC4)CC3)nc(N3CC[C@@H](F)C3)nc2cc1C#CCCN1CCCC1 ) = 6.00 to 7.00

Reported pIC50 ( COc1cc2c(NC3CCN(C(C)C)CC3)nc(N(C)C)nc2cc1C#CCCN1CCCC1 ) = > 7.00
